Source listed as patent US20240368668A1.

TARGET_OR_SYSTEM: mouse ADAMTS7 (Mus musculus, UniProt Q68SA9)
Construct: Full-length mouse Adamts7 1-1857 (Uniprot Q68SA9, WT or E373Q catalytic mutant); expressed in transfected cells; host or cells: Human Coronary Artery Smooth Muscle Cells (HCA-SMC, Lonza), adenovirus 50 MOI
Sequence (Q68SA9 221-1657): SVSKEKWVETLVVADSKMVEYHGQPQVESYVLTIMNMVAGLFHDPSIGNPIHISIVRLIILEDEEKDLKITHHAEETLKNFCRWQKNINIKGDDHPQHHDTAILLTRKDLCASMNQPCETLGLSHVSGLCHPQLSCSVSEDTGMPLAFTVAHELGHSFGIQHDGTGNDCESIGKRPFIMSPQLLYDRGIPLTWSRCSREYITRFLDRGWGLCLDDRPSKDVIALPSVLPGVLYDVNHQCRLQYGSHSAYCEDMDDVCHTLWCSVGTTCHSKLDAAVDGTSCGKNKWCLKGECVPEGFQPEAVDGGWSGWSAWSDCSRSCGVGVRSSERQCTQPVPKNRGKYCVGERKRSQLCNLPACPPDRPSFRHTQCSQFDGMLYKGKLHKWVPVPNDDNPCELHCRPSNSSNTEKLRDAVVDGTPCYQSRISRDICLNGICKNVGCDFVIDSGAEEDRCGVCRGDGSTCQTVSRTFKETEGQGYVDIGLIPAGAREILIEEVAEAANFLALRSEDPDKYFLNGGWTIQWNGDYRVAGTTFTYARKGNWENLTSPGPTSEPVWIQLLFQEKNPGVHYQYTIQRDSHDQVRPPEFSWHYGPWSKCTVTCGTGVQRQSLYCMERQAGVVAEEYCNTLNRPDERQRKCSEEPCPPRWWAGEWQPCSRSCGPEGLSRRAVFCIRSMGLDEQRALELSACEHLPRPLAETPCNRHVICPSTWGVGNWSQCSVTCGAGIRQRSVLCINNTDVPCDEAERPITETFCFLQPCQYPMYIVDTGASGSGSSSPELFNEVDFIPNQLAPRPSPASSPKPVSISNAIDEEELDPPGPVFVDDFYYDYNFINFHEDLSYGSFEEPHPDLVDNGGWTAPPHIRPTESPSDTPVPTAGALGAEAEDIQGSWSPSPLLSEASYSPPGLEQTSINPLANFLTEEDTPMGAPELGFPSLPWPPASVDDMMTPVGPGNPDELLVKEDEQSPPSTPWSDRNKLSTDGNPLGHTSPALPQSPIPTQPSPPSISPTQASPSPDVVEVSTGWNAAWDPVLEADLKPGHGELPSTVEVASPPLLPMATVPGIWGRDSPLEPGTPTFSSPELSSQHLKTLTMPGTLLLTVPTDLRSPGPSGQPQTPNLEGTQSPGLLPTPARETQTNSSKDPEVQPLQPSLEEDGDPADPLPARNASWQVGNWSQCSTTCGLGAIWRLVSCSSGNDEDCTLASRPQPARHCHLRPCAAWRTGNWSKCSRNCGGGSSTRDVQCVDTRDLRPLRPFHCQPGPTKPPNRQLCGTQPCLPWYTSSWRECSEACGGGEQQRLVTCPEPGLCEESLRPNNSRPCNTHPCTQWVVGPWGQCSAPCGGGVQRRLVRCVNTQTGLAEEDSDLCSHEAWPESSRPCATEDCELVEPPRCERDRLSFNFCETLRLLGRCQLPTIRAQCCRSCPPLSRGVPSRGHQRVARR
RUN_DESCRIPTION: TMT10 TAILS N-terminomics, SMC1 experiment (Ad-mADAMTS7 WT vs EQ vs Luc, technical replicates, trypsin digest)
Assay type: cell-based
CONDITIONS_USED: TAILS neo-N-terminal peptide abundance; log fold change, Ad-mADAMTS7 WT over Luc
Ends that are not written are not given here. deamidated = deamidated asparagine
Catalogue of logFC.mWT.over.Lux readings, one per entry.

Reference set, count: 5
SUBSTANCE | logFC.mWT.over.Lux
LOXL2_318 (AYKPEQPLVR; listed as Homo sapiens) | 0.78
COL1A2_389 (SAGPPGPPGLR; listed as Homo sapiens) | 1.12
MMP1_24 (LETQEQDVDLVQKYLEKYYNLKN(deamidated)DGR; listed as Homo sapiens) | 2.23
LOXL2_37 (FQQPAPEYHQPQAPANVAKIQLR; listed as Homo sapiens) | 3.37
HSPG2_3542 (IAHVELADAGQYR; listed as Homo sapiens) | 0.60

Task: Reported logFC.mWT.over.Lux, substance COL1A2_630 (VGTAGPSGPSGLPGER; listed as Homo sapiens) : ____
Result: 1.18

Task: Okay, and FLNA_1285 (LTQTGGPHVKAR; listed as Homo sapiens) ?
Result: 4.95

Task: Okay, and LOXL1_219 (VASAGVIYPYQPR; listed as Homo sapiens) ?
Result: 0.99
